biological target: human CYP2D6 (Homo sapiens, UniProt P10635); assay: biochemical; settings: CYP2D6 IC50 (half-maximal inhibitory concentration)
Sequence (P10635 whole entry): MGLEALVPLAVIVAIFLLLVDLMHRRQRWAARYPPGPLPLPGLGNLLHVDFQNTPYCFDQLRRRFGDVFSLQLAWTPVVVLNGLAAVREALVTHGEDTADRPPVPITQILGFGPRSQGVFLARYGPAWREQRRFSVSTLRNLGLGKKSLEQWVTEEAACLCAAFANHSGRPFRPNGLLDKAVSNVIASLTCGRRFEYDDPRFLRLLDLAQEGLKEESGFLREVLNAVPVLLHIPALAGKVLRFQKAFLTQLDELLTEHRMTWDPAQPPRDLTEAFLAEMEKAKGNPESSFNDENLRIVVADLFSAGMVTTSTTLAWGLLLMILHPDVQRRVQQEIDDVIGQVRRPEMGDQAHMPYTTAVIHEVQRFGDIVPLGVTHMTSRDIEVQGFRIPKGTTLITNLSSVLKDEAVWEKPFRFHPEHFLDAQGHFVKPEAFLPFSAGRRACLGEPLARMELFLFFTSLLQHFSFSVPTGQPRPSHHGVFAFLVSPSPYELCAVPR
Structures can show the parent of a compound that is named as a salt.
METRIC: IC50 (µM)
Could you give me the number in µM? Just the number is fine.

{"columns": ["COMPOUND", "MEASUREMENT UNIT", "NUMERIC READOUT"],
 "data": [
  ["Cc1[nH]cnc1CN1CCc2c(c3ccccc3n2C)C1=O [Alosetron hydrochloride]", "µM", 10.8],
  ["CC(C)(C)C(O)C(Oc1ccc(-c2ccccc2)cc1)n1cncn1 (stereo not shown) [Bitertanol]", "µM", 63.5],
  ["COc1ccc2cc3[n+](cc2c1OC)CCc1cc2c(cc1-3)OCO2 [Berberine chloride]", "µM", 0.52]
]}

# get_value(readout='IC50', item= Cc1c(O)cccc1C(=O)N[C@@H](CSc1ccccc1)[C@H](O)CN1C[C@H]2CCCC[C@H]2C[C@H]1C(=O)NC(C)(C)C [Nelfinavir mesylate] )
14.4

// same read-out, input: CC(Cc1ccccc1)NCCn1cnc2c1c(=O)n(C)c(=O)n2C (stereo not shown) [Fenethylline hydrochloride]
5.37
